system: auxin signaling mutants; assay: Effect of activators on lateral root density of auxin signaling mutants (Table 2); type: in vivo, Arabidopsis thaliana; conditions: Arf17; 3 uM
The label depends only on lateral root density: Fulfilled if it is at least 7 LR/cm, Not fulfilled if it is smaller.

[ask] Exam item: decide whether the reported lateral root density for COc1cc(-c2nc3ccccn3c2N=Cc2cccc(Cl)c2Cl)ccc1O is at least 7 LR/cm.
[reply] Fulfilled

[ask] Next compound: O=C(NN=Cc1cccc(Cl)c1Cl)c1ccc(O)c(O)c1
[reply] Fulfilled

[ask] Next compound: Nc1ncc(Cc2cccc(Cl)c2Cl)s1
[reply] Fulfilled

[ask] Next compound: O=C(O)Cc1cccc2ccccc12 [NAA, 1-naphthylacetic acid, reference compound]
[reply] Fulfilled

[ask] Next compound: Clc1cccc(C=Nc2ccc(N3CCOCC3)cc2)c1Cl
[reply] Not fulfilled

[ask] Next compound: Cc1c(N=Cc2cccc(Cl)c2Cl)cccc1[N+](=O)[O-]
[reply] Not fulfilled
